Where these numbers come from: the supplement of paper PMC6757056

Field: normalized RNA/DNA level without ligand (log10). Provide a value for each of the variants that follow.
B1: library; a variant is named by its letters at N, in order (parent)
chain: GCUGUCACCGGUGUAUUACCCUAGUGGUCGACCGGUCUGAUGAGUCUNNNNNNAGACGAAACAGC

- Variants of: B1
- ASSAY_OVERVIEW: normalized RNA/DNA level without ligand (relative to sTRSVctl = 100) (log10 (% of sTRSVctl)); ligand: hypoxanthine (xanthine aptamer); higher = less ribozyme self-cleavage, higher mRNA level
- EXPERIMENTAL_CONTEXT: HEK293T, reporter: mCherry (pCS4076), ligand present: no

Lab note: measured normalized RNA/DNA level without ligand (log10) of `GGUCGU` was 1.98

Lab note: measured normalized RNA/DNA level without ligand (log10) of `AGAGGC` was 1.86

Lab note: measured normalized RNA/DNA level without ligand (log10) of `GAAACU` was 1.89

Lab note: measured normalized RNA/DNA level without ligand (log10) of `ACAUAG` was 1.52

Lab note: measured normalized RNA/DNA level without ligand (log10) of `AACUAC` was 1.84

Lab note: measured normalized RNA/DNA level without ligand (log10) of `AGACAG` was 1.39

Lab note: measured normalized RNA/DNA level without ligand (log10) of `UGUUUA` was 1.88

Lab note: measured normalized RNA/DNA level without ligand (log10) of `GUCGAG` was 1.41

Lab note: measured normalized RNA/DNA level without ligand (log10) of `GUCUAG` was 1.53

Lab note: measured normalized RNA/DNA level without ligand (log10) of `AGCGUG` was 1.37

Lab note: measured normalized RNA/DNA level without ligand (log10) of `GCUACG` was 1.52

Lab note: measured normalized RNA/DNA level without ligand (log10) of `GCAUCC` was 1.82

Lab note: measured normalized RNA/DNA level without ligand (log10) of `UGUAUA` was 1.87

Lab note: measured normalized RNA/DNA level without ligand (log10) of `GCCCUU` was 1.92

Lab note: measured normalized RNA/DNA level without ligand (log10) of `GUUACC` was 1.88

Lab note: measured normalized RNA/DNA level without ligand (log10) of `GUUGGU` was 1.78

Lab note: measured normalized RNA/DNA level without ligand (log10) of `AAAAAA` was 1.8

Lab note: measured normalized RNA/DNA level without ligand (log10) of `UAAACC` was 1.91

Lab note: measured normalized RNA/DNA level without ligand (log10) of `GCGUUG` was 1.3

Lab note: measured normalized RNA/DNA level without ligand (log10) of `CAUAAC` was 1.83

Lab note: measured normalized RNA/DNA level without ligand (log10) of `GGAGGA` was 1.64

Lab note: measured normalized RNA/DNA level without ligand (log10) of `AGUUCG` was 1.43
